system: GIST430 cells; assay: Cellular viability assay (resazurin, 7 days); assay type: cell-based; details: Homo sapiens, GIST430 (KIT exon 11 del.560-576), n=2, read-out: Inhibition of viability IC50 ± SD
assay-metric: IC50 (nM)
Supply the numeric figure in nM, leaving out any unit text.

Sample records with IC50:
INSERT INTO results (smiles_notation, reported) VALUES
  ('CCn1c(=O)c(-c2cc(NC(=O)Nc3ccccc3)c(F)cc2Br)cc2cnc(NC)cc21', 5),
  ('CCN(CC)CCNC(=O)c1c(C)[nH]c(/C=C2\C(=O)Nc3ccc(F)cc32)c1C', 15);

With those in mind, consider the next compound.
Record "Cn1cc(-c2cc3c(N4CCN(c5ncc([C@@](C)(N)c6ccc(F)cc6)cn5)CC4)ncnn3c2)cn1" , field IC50: 48

* * *

biological target: KIT exon 11 del560-576/exon 13 V654A (Homo sapiens, UniProt P10721, DEL560-576/V654A); construct: cancer cell lines expressing disease-relevant endogenous KIT mutations; endogenous in cells; host or cells: GIST430/654; test: KIT autophosphorylation (Y703) in GIST430/654 cells (Luminex); format: cell-based; settings: GIST430/654; corrected for protein binding to 15% FCS in cell culture medium; read-out: cellular free IC50, KIT autophosphorylation
Sequence (P10721 with tags, fused parts or gaps DEL560-576/V654A): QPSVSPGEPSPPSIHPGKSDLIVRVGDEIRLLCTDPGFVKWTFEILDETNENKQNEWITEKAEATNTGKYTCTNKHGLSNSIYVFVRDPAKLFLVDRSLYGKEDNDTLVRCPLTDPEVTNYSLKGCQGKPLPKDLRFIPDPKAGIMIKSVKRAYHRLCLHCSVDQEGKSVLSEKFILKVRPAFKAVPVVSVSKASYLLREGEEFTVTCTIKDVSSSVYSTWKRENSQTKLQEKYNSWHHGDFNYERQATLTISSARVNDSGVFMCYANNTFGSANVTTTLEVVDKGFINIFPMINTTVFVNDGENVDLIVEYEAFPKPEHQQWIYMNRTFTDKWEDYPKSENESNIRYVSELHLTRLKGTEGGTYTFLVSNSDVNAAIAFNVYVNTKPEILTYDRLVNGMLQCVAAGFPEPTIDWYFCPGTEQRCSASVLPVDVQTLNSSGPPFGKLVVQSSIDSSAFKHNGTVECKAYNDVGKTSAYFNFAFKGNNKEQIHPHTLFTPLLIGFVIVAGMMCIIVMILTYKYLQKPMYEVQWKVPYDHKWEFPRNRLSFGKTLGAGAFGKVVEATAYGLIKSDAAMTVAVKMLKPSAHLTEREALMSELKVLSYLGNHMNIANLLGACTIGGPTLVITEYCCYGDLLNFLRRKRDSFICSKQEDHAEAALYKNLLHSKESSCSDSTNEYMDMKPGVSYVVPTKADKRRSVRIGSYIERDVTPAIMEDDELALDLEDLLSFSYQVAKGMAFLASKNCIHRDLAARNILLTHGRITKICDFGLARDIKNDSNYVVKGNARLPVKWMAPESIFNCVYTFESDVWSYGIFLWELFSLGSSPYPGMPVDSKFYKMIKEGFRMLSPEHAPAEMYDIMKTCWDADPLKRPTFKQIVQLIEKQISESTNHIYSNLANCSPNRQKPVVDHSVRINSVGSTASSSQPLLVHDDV
assay-metric: IC50 (nM)
Supply the numeric figure in nM, leaving out any unit text.

Record "Cn1cc(-c2ccc(CNc3cc(-c4cnc5cc(OCCCN6CCCC6)ccn45)ncn3)cc2)cn1" , field IC50: 16

* * *

molecular target: KIT exon 11 del560-576/exon 13 V654A (Homo sapiens, UniProt P10721, DEL560-576/V654A); construct: cancer cell lines expressing disease-relevant endogenous KIT mutations; endogenous in cells; host or cells: GIST430/654; assay: KIT autophosphorylation (Y703) in GIST430/654 cells (Luminex); format: cell-based; conditions: 45 minutes treatment; total concentration; read-out: Inhibition of P-KIT in GIST430/654: IC50
assay-metric: IC50 (nM)
Supply the numeric figure in nM, leaving out any unit text.

Record "Cn1cc(-c2ccc(CNc3cc(-c4cnc5cc(OCCCN6CCCC6)ccn45)ncn3)cc2)cn1" , field IC50: 48

* * *

target: KIT (Homo sapiens, UniProt P10721, DEL560-576/V654A); test: PK/PD: KIT autophosphorylation in GIST430/654 CDX tumors; settings: once daily for 5 days, free plasma concentration, read-out: in vivo IC50 for inhibition of KIT phosphorylation (free plasma concentration)
Sequence (P10721 with tags, fused parts or gaps DEL560-576/V654A): as above
assay-metric: pIC50
The scale used: pIC50 is minus the common logarithm of the concentration in molar units.

Record Cn1cc(-c2ccc(CNc3cc(-c4cnc5cc(OCCCN6CCCC6)ccn45)ncn3)cc2)cn1 [M4205] , field pIC50: 8.40

* * *

target: KIT exon 11 del560-576 (Homo sapiens, UniProt P10721, DEL560-576); construct: cancer cell lines expressing disease-relevant endogenous KIT mutations; endogenous in cells; host or cells: GIST430; experiment: KIT autophosphorylation (Y703) in GIST430 cells (Luminex); format: cell-based; conditions: GIST430 (KIT exon 11 del.560-576); n=2; read-out: Inhibition of KIT autophosphorylation (Y703) IC50 ± SD
Sequence (P10721 with tags, fused parts or gaps DEL560-576): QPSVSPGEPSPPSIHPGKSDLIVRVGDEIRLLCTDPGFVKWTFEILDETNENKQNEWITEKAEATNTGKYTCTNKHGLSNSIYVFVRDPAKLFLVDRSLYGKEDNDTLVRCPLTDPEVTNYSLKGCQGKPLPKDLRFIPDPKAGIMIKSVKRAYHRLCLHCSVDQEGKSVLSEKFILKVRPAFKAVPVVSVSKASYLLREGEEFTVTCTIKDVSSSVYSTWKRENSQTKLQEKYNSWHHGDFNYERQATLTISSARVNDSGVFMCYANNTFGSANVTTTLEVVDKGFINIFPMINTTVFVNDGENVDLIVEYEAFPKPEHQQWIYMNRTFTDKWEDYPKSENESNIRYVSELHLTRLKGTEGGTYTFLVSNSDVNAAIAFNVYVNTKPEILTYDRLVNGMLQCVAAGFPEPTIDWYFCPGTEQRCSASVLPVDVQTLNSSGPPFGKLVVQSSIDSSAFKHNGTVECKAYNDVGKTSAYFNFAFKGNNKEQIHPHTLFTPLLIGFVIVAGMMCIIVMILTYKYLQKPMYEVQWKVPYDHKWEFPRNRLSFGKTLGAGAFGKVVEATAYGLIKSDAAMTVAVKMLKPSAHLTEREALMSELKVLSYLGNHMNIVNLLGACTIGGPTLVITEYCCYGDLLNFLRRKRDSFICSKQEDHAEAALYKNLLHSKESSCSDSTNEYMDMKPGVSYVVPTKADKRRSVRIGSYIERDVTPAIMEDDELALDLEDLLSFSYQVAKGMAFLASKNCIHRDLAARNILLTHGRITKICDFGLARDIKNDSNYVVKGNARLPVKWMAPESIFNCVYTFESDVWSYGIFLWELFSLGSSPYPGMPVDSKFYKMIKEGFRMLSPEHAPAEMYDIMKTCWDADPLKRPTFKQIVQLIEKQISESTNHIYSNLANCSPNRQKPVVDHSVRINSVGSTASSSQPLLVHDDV
assay-metric: pIC50
The scale used: pIC50 is minus the common logarithm of the concentration in molar units.

Record COCCOc1cc(F)c2c(Nc3ccc(NC(=O)Cn4cc(C(C)C)nn4)cc3)ncnc2c1.Cc1ccc(S(=O)(=O)O)cc1 [NB003, reference compound] , field pIC50: 8.52
